measured.target: RAF proto-oncogene serine/threonine-protein kinase (Homo sapiens);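 also: values are mean CRAF kinase inhibition from profiling of the GSK Published Kinase Inhibitor Set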
test.settings: at 0.1 µM
Attribute: inhibition

- chem.smiles: "Cc1ccc2c(-c3ccnc(Nc4ccccc4)n3)c(-c3ccc(F)cc3)nn2n1"
  measured.target: "RAF proto-oncogene serine/threonine-protein kinase (Homo sapiens)"
  inhibition: "-2.73%"
- chem.smiles: "Nc1nc(-c2cccc(Cl)c2)c(-c2ccc3ncccc3n2)s1"
  measured.target: "RAF proto-oncogene serine/threonine-protein kinase (Homo sapiens)"
  inhibition: "-1.17%"
- chem.smiles: "Cc1cccc(Nc2ncc(-c3ccccc3)o2)c1"
  measured.target: "RAF proto-oncogene serine/threonine-protein kinase (Homo sapiens)"
  inhibition: "0.64%"
- chem.smiles: "CCn1c(-c2nonc2N)nc2c(C#CC(C)(C)O)nc(OC[C@H](N)c3ccccc3)cc21"
  measured.target: "RAF proto-oncogene serine/threonine-protein kinase (Homo sapiens)"
  inhibition: "-2.29%"
- chem.smiles: "FC(F)(F)c1cccc(-c2nn3ncccc3c2-c2ccnc(Nc3ccc4c(c3)OCCO4)n2)c1"
  measured.target: "RAF proto-oncogene serine/threonine-protein kinase (Homo sapiens)"
  inhibition: "-1.62%"
- chem.smiles: "CNC(=O)c1cc(-c2ccc(F)cc2)cc(-c2ccc(S(=O)(=O)N3CCCC3)cc2)c1N"
  measured.target: "RAF proto-oncogene serine/threonine-protein kinase (Homo sapiens)"
  inhibition: "0.46%"

Alright, here's another compound for you.
Problem: Return inhibition for the following compound: Cc1cccc2c1NC(=O)/C2=N\Nc1ccc(S(N)(=O)=O)cc1
Result: -3.52%
